# Target System: CGRP receptor (Homo sapiens, UniProt O60894+Q16602)
# Sequence (Q16602 23-461): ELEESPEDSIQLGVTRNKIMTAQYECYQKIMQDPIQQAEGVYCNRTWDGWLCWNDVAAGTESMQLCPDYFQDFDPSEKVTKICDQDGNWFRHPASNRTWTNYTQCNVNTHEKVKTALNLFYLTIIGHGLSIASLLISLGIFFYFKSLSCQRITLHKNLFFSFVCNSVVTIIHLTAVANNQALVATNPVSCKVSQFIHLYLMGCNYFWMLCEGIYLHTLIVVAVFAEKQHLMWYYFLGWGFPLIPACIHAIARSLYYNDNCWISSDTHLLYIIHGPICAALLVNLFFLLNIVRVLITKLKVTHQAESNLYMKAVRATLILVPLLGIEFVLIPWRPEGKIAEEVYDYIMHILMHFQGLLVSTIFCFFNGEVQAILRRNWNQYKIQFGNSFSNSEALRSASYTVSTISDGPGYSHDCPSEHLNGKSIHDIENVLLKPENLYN
# Sequence (O60894 27-148): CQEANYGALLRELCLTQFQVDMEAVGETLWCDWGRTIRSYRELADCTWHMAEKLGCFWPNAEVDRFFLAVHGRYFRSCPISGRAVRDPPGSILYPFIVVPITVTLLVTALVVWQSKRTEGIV
# Measurement Protocol: CGRP radioligand binding assay ([125I]-CGRP displacement, SK-N-MC homogenate)
# Design: endogenous in cells; host or cells: SK-N-MC cells (homogenate/membrane pellet)
# Measurement Setup: Table 1; displacement of [125I]-CGRP, SK-N-MC membranes
pIC50: −log10 of the molar value.
Recorded Metric: pIC50

Here are 3 compounds together with their reported answers.
[[record]]
smiles_input = "O=C(C[C@@H]1Cc2cc(Br)c3[nH]nc(Cl)c3c2CN(CC(F)(F)F)C1=O)N1CCC(n2c(=O)[nH]c3ncccc32)CC1"
value_measured = "8.00 to 11.00"

[[record]]
smiles_input = "O=C(C[C@@H]1Cc2cc(Cl)c3[nH]ncc3c2CN(CC(F)(F)F)C1=O)N1CCC(N2CCc3cccc(F)c3NC2=O)CC1"
value_measured = "7.00 to 8.00"

[[record]]
smiles_input = "Cn1ncc2c3c(cc(Cl)c21)C[C@@H](CC(=O)N1CCC(n2c(=O)[nH]c4ncccc42)CC1)C(=O)N(CC(F)(F)F)C3"
value_measured = "8.00 to 11.00"


Entry N#Cc1cn(C2CCN(C(=O)C[C@@H]3Cc4cc(Cl)c5[nH]ncc5c4CN(CC(F)(F)F)C3=O)CC2)c(=O)[nH]1 — recorded pIC50 = 7.00 to 8.00

* * *

Kindly supply the reported IC50 values for the records listed here.
# Target System: CGRP receptor (Homo sapiens, UniProt O60894+Q16602)
# Measurement Protocol: CGRP radioligand binding assay ([125I]-CGRP displacement, SK-N-MC homogenate)
# Set-up: endogenous in cells; host or cells: SK-N-MC cells (homogenate/membrane pellet)
# Measurement Setup: Table 2; displacement of [125I]-CGRP, SK-N-MC membranes

Worked cases, IC50 given:
[[record]]
compound = "CC(C)(C)CN1Cc2c(cc(Cl)c3[nH]ncc23)C[C@@H](CC(=O)N2CCC(N3Cc4cccc(F)c4NC3=O)CC2)C1=O"
value_measured = "0.01 to 10 nM"

[[record]]
compound = "O=C(C[C@@H]1Cc2cc(Br)c3[nH]ncc3c2CN(CC2CC2)C1=O)N1CCC(c2cc3ccccc3[nH]c2=O)CC1"
value_measured = "0.01 to 10 nM"

[[record]]
compound = "CC(C)(C)CN1Cc2c(ccc3[nH]ncc23)C[C@@H](CC(=O)N2CCC(N3Cc4ccccc4NC3=O)CC2)C1=O [drawing 135]"
value_measured = "100 to 1000 nM"

[[record]]
compound = "O=C(N[C@@H]1Cc2cc3cn[nH]c3cc2CN(Cc2ccccc2)C1=O)N1CCC(N2Cc3ccccc3NC2=O)CC1"
value_measured = "0.01 to 10 nM"

[[record]]
compound = "O=C(C[C@@H]1Cc2cc(Cl)c3[nH]ncc3c2CN(Cc2ncc[nH]2)C1=O)N1CCC(N2Cc3ccccc3NC2=O)CC1"
value_measured = "0.01 to 10 nM"

[[record]]
compound = "CC(C)(C)CN1Cc2c(cc(Cl)c3[nH]ncc23)C[C@@H](CC(=O)N2CCC(N3Cc4ccccc4NC3=O)CC2)C1=O"
value_measured = "0.01 to 10 nM"


Hey, can you go through the list below and give me IC50 for every item?
1. Cc1cc2c(c3cn[nH]c13)CN(CC(C)(C)C)C(=O)[C@H](CC(=O)N1CCC(c3cc4ccccc4[nH]c3=O)CC1)C2
2. O=C1Nc2ccccc2CC1N1CCN(C(=O)N[C@@H]2Cc3ccc4[nH]ncc4c3CN(Cc3ccccc3)C2=O)CC1 (some centres unmarked)

-- reply
1: 0.01 to 10 nM; 2: 100 to 1000 nM

Need IC50 for each of these compounds.
1. CC(C)(C)CN1Cc2c(cc(Cl)c3[nH]ncc23)C[C@@H](CC(=O)N2CCC(c3cc4ccccc4[nH]c3=O)CC2)C1=O
2. CC(C)(C)CN1Cc2c(cc(Cl)c3[nH]ncc23)C[C@@H](CC(=O)N2CCC(n3cc(-c4ccccc4)[nH]c3=O)CC2)C1=O
3. O=C(C[C@@H]1Cc2cc(Cl)c3[nH]ncc3c2CN(CC(F)(F)F)C1=O)N1CCC(c2cc3cccnc3[nH]c2=O)CC1
4. CC(C)(C)CN1Cc2c(cc(Cl)c3[nH]ncc23)C[C@@H](NC(=O)N2CCC(N3Cc4ccccc4NC3=O)CC2)C1=O
5. CC(C)(C)CN1Cc2c(cc(Br)c3[nH]ncc23)C[C@@H](CC(=O)N2CCC(c3cc4ccccc4[nH]c3=O)CC2)C1=O

-- reply
["0.01 to 10 nM", "0.01 to 10 nM", "0.01 to 10 nM", "0.01 to 10 nM", "0.01 to 10 nM"]

Each compound below has a recorded value; state its IC50.
1. CC(C)(C)CN1Cc2c(cc(Cl)c3[nH]ncc23)C[C@@H](CC(=O)N2CCC(c3cc4ccc(F)cc4[nH]c3=O)CC2)C1=O
2. O=C(NC1Cc2ccc3[nH]ncc3c2CN(CCc2ccncc2)C1=O)N1CCC(N2Cc3ccccc3NC2=O)CC1 (centres unmarked)
3. CC(C)(C)CN1Cc2c(cc(Cl)c3[nH]ncc23)C[C@@H](CC(=O)N2CCC(N3Cc4cccnc4NC3=O)CC2)C1=O
4. CC(C)(C)CN1Cc2c(cc(Cl)c3[nH]ncc23)C[C@@H](CC(=O)N2CCC3(CC2)NC(=O)Nc2ccccc23)C1=O
5. O=C(C[C@@H]1Cc2cc(Br)c3[nH]ncc3c2CN(CC(F)(F)F)C1=O)N1CCC(c2cc3cccnc3[nH]c2=O)CC1
6. O=C(C[C@@H]1Cc2cc(Cl)c3[nH]ncc3c2CN(CC(F)(F)F)C1=O)N1CCC(c2cc3ccccc3[nH]c2=O)CC1
7. CC(C)(C)CN1Cc2c(cc(Cl)c3[nH]ncc23)C[C@@H](CC(=O)N2CCC(n3cc(-c4ccccn4)[nH]c3=O)CC2)C1=O
8. COc1cc2ccccc2cc1C1CCN(C(=O)N[C@@H]2Cc3cc(Cl)c4[nH]ncc4c3CN(CC(C)(C)C)C2=O)CC1

-- reply
1: 0.01 to 10 nM; 2: 0.01 to 10 nM; 3: 0.01 to 10 nM; 4: 0.01 to 10 nM; 5: 0.01 to 10 nM; 6: 0.01 to 10 nM; 7: 0.01 to 10 nM; 8: > 1000 nM

* * *

For each of the compounds below, state its IC50.
# Target System: CGRP receptor (Homo sapiens, UniProt O60894+Q16602)
# Measurement Protocol: CGRP radioligand binding assay ([125I]-CGRP displacement, SK-N-MC homogenate)
# Design: endogenous in cells; host or cells: SK-N-MC cells (homogenate/membrane pellet)
# Measurement Setup: Table 1; displacement of [125I]-CGRP, SK-N-MC membranes
# Method: CGRP Binding Assay. Tissue Culture. SK-N-MC cells were grown at 37° C. in 5% CO2 as a monolayer in medium consisting of MEM with Earle's salts and L-glutamine (Gibco) supplemented with 10% fetal bovine serum (Gibco). Cell Pellets. […] Radioligand Binding Assay. […] Protein bound radioactivity was determined using a gamma or scintillation counter. […]

Use the examples below as a reference point.
[[record]]
compound = "O=C(C[C@@H]1Cc2cc(Cl)c3[nH]ncc3c2CN(CC(F)(F)F)C1=O)N1CCC(n2c(=O)[nH]c3c(F)cccc32)CC1"
target_system = "CGRP receptor (Homo sapiens, UniProt O60894+Q16602)"
value_measured = "0.01 to 10 nM"

[[record]]
compound = "O=C1NC(=O)C2(CCN(C(=O)C[C@@H]3Cc4cc(Cl)c5[nH]ncc5c4CN(CC(F)(F)F)C3=O)CC2)N1"
target_system = "CGRP receptor (Homo sapiens, UniProt O60894+Q16602)"
value_measured = "10 to 100 nM"

[[record]]
compound = "O=C1NC(=O)C(C2CCN(C(=O)C[C@@H]3Cc4cc(Cl)c5[nH]ncc5c4CN(CC(F)(F)F)C3=O)CC2)N1 (stereo partly shown)"
target_system = "CGRP receptor (Homo sapiens, UniProt O60894+Q16602)"
value_measured = "100 to 1000 nM"


Param item: CC(C)(C)CN1Cc2c(cc(Cl)c3[nH]ccc23)C[C@@H](CC(=O)N2CCC(c3cc4[nH]ccc4[nH]c3=O)CC2)C1=O ; param system: CGRP receptor (Homo sapiens, UniProt O60894+Q16602); output IC50: 0.01 to 10 nM

* * *

# Target System: CGRP receptor (Homo sapiens, UniProt O60894+Q16602)
# Measurement Protocol: CGRP radioligand binding assay ([125I]-CGRP displacement, SK-N-MC homogenate)
# Design: endogenous in cells; host or cells: SK-N-MC cells (homogenate/membrane pellet)
# Measurement Setup: Table 1; displacement of [125I]-CGRP, SK-N-MC membranes
pIC50: −log10 of the molar value.
For each entry below, report its pIC50 value.

// known answers, use as guide
[[record]]
smiles_input = "O=C(C[C@@H]1Cc2cc(Cl)c3[nH]nc(Cl)c3c2CN(CC(F)(F)F)C1=O)N1CCC(N2CCc3ccccc3NC2=O)CC1"
recorded_metric = "pIC50"
value_measured = "8.00 to 11.00"

[[record]]
smiles_input = "O=C(O[C@@H]1Cc2cc(Cl)c3[nH]ncc3c2CN(CC(F)(F)F)C1=O)N1CCC(N2CCc3ccccc3NC2=O)CC1"
recorded_metric = "pIC50"
value_measured = "8.00 to 11.00"

[[record]]
smiles_input = "O=C(C[C@@H]1Cc2cc(Cl)c3[nH]ncc3c2CN(CC(F)(F)F)C1=O)N1CCC(n2ccn(-c3ccccc3F)c2=O)CC1"
recorded_metric = "pIC50"
value_measured = "< 6.00"


Could you report pIC50 for every entry in the following list?
1. O=C(C[C@@H]1Cc2cc(Cl)c3c(cnn3Cc3ccccc3)c2CN(CC(F)(F)F)C1=O)N1CCC(n2c(=O)[nH]c3ncccc32)CC1
2. O=C(C[C@@H]1Cc2cc(Cl)c3[nH]ncc3c2CN(CC(F)(F)F)C1=O)N1CCC(n2c(=O)[nH]c3c2ccc[n+]3[O-])CC1

-- reply
1. 7.00 to 8.00
2. 7.00 to 8.00
